test system: red blood cells; experiment: Hemolysis assay; type: cell-based, Sprague-Dawley mouse
Where a SMILES comes first, the peptide text is derived from it. [ ]: non-standard residue; d: D form. Gly(N(CH2)2(3-indolyl)) = O=C(O)CNCCc1c[nH]c2ccccc12; Nspe = C[C@H](NCC(=O)O)c1ccccc1; Nlys = NCCCCNCC(=O)O
Task for the reader: assign each of the following compounds its reported HC10.

"C[C@@H](c1ccccc1)N(CC(N)=O)C(=O)CN(C(=O)CN(CCCCN)C(=O)CN(C(=O)CN(CCCCN)C(=O)CN(CCCCN)C(=O)CN(C(=O)CN(C(=O)CN(CCCCN)C(=O)CN(CCc1c[nH]c2ccccc12)C(=O)CN(CCc1c[nH]c2ccccc12)C(=O)CNCCCCN)[C@@H](C)c1ccccc1)[C@@H](C)c1ccccc1)[C@@H](C)c1ccccc1)[C@@H](C)c1ccccc1" has a reported HC10 of >100/>100 μM

C[C@@H](c1ccccc1)N(CC(=O)N(CCCCN)CC(=O)N(CC(=O)N(CC(=O)N(CCCCN)CC(=O)N(CC(=O)N(CC(=O)N(CCCCN)CC(=O)N(CCc1c[nH]c2ccccc12)CC(=O)N(CCc1c[nH]c2ccccc12)CC(N)=O)[C@@H](C)c1ccccc1)[C@@H](C)c1ccccc1)[C@@H](C)c1ccccc1)[C@@H](C)c1ccccc1)C(=O)CN(C(=O)CNCCCCN)[C@@H](C)c1ccccc1 [Peptoid 11-1] (H-[Nlys][Nspe][Nspe][Nlys][Nspe][Nspe][Nlys][Nspe][Nspe][Nlys][Gly(N(CH2)2(3-indolyl))][Gly(N(CH2)2(3-indolyl))]-NH2) has a reported HC10 of 10.1 µM
